Attribute: DC50
Target: Nanoluciferase-BRD9 fusion protein (3×FLAG-NLuc-BRD9) in SYO-1 cells (Homo sapiens)
Construct: expressed in transfected cells; host or cells: SYO-1
Sequence (Q9H8M2 1-597): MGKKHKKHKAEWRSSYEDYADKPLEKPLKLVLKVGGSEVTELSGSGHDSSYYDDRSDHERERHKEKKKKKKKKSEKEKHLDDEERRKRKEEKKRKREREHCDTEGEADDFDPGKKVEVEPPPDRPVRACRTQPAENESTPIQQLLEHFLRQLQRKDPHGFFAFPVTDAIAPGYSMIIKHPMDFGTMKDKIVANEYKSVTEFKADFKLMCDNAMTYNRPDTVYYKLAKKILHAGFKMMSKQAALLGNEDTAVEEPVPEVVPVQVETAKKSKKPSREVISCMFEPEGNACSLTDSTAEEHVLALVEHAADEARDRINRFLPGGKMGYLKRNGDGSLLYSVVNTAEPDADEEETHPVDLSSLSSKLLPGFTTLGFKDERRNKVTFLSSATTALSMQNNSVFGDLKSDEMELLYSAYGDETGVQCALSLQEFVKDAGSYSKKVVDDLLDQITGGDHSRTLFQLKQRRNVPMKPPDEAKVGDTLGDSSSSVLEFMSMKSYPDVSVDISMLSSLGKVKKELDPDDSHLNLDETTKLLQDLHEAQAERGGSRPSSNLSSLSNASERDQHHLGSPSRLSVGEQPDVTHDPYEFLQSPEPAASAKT
Experiment: SYO1 BRD9 NanoLuc Degradation Assay
Format: cell-based
Details: Table 6B; SYO-1 cells expressing 3×FLAG-NLuc-BRD9, 6 hours incubation, 1 μM top dose; read-out: SYO1 BRD9-NanoLuc degradation IC50

Query: Which measured DC50 value corresponds to CNc1cc2c(=O)n(C)cc(-c3cc(OC)c(CN(C)CC45CC(C(=O)NCCCCCNc6cccc7c6C(=O)N(C6CCC(=O)NC6=O)C7=O)(C4)C5)c(OC)c3)c2cn1 (stereo not shown) ?
Reply: 10 to 100 nM

Query: Need DC50, item COc1cc(-c2cn(C)c(=O)c3cnc(N(C)C)cc23)cc(OC)c1CN1CCC(c2ccc3c(c2)C(=O)N(C2CCC(=O)NC2=O)C3=O)CC1 (stereo not shown)
Reply: < 10 nM

Query: What value of DC50 has been reported for the following compound? CN(C)c1cc2c(-c3cc(Cl)c(CN4CCC(CN5CCC6(CC5)CC(Oc5ccc7c(c5)C(=O)N(C5CCC(=O)NC5=O)C7=O)C6)CC4)c(Cl)c3)cn(C)c(=O)c2cn1 (stereo not shown)
Reply: 10 to 100 nM

Query: So what's the measured DC50 for this one? COc1cc(-c2cn(C)c(=O)c3cnc(N(C)C)cc23)cc(OC)c1CN1CC(Oc2ccn3c(=O)n(C4CCC(=O)NC4=O)nc3c2)C1 (stereo not shown)
Reply: < 10 nM

Query: Suppose we examine the compound COc1cc(-c2cn(C)c(=O)c3cnc(N4CCC4)cc23)cc(OC)c1CN1CCC(CN2CCC3(CC2)CC(Oc2ccc4c(c2)C(=O)N(C2CCC(=O)NC2=O)C4=O)C3)CC1 (stereo not shown) ; what DC50 value has been reported?
Reply: < 10 nM
